Each recorded value in this set is attributed to ChEMBL document CHEMBL3433997.

target: Solute carrier family 2, facilitated glucose transporter member 1 (Homo sapiens); test: ST_JUDE_LEISH: Cytotoxicity at 2uM final concentration against transgenic Leishmania Mexicana promastigotes LmGLUT1 that are glucose transport deficient and complemented with the human glucose transporter GLUT1. Activity is measured by DNA content using SYBR green in vitro; type: functional
measured_endpoint: inhibition (%)
Answers are plain numbers, in %.

As a guide, the following entries are already answered.
get_value(item= Cc1cccc2nc(-c3ccc(-c4cccc(NC(=O)c5cnn6cccnc56)c4)cc3)[nH]c12 , readout=inhibition) returns 15.4

Entry COc1ccc2nccc([C@@H](O)CN3CCC(NC(=O)CCC(=O)c4cc(C(C)(C)C)ccc4OC)CC3)c2c1 — recorded inhibition = 5.04

# inhibition (compound: COc1cc2nc(NCCc3ccccc3)nc(NCc3nccs3)c2cc1OC ) is 1.89

The compound O=C(/C=C/c1ccc(Cl)c(Cl)c1)NCCCCCCN1CCN(C(=O)Nc2ccc(OC(F)F)cc2)CC1 showed inhibition equal to 5.36

Each of the following entries comes with a recorded value; kindly state inhibition for each.
1. N#Cc1cccc(CN2CCCN(Cc3cccc(C(=O)Nc4ccc(Cl)cc4)c3)CC2)c1
2. COc1cc(NC(=O)N2CCOC(CCN3CCC4(CCc5ccccc54)CC3)(c3ccc(Cl)c(Cl)c3)C2)cc(OC)c1 (configuration not stated)
3. N=c1c2c(n(Cc3ccccc3)c3c1CCC3)CCCC2
4. N#Cc1ccc(N2CCN(Cc3cccc(-c4ccc(-c5nc6cc(C(F)(F)F)ccc6[nH]5)cc4)c3)CC2)nc1
5. Cc1ccc(Cn2cnc3cc(C(=O)Nc4ccc(-c5cccc(CN(C)C)c5)cc4)ccc3c2=O)o1

1: 0.81; 2: 3.64; 3: 26.6; 4: 4.01; 5: 75.5

###

I'd appreciate it if you could supply inhibition values for the items below.
biological target: Solute carrier family 2, facilitated glucose transporter member 1 (Homo sapiens) (UniProt P11166); experiment: ST_JUDE_LEISH: Cytotoxicity at 2uM final concentration against transgenic Leishmania Mexicana promastigotes LmGLUT1 that are glucose transport deficient and complemented with the human glucose transporter GLUT1. Activity is measured by DNA content using SYBR green in vitro; type: functional
Sequence (P11166 whole entry): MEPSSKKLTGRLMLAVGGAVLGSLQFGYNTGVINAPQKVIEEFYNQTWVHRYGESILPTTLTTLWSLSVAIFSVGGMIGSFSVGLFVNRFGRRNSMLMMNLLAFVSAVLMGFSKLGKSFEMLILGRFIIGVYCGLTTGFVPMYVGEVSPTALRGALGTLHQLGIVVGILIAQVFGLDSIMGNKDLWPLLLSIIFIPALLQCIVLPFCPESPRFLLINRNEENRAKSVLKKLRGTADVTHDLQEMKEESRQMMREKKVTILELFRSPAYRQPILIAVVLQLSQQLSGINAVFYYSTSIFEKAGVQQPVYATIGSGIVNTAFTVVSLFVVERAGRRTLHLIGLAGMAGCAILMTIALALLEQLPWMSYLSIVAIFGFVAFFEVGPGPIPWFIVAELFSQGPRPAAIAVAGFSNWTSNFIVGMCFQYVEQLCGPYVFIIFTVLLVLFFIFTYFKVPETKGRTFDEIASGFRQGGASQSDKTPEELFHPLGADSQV
One number for each entry, in %.

Some molecules with recorded inhibition:
So for Cc1noc(C)c1-c1cccc(CNCc2cccc(-c3cccc(-c4nc5cc(C(F)(F)F)ccc5[nH]4)c3)c2)c1 , the logged inhibition turned out to be 0.14

For record Cc1cccc2nc(-c3cccc(-c4ccc(NC(=O)C(C)CN5CCN(C)CC5)cc4)c3)[nH]c12 (stereo not given) the listed inhibition is 1.5

Here are 6 molecules. What values of inhibition were reported for them?
1. CCNc1cc(C(=O)N[C@@H](Cc2ccccc2)[C@H](O)CNC2CCC(C)(C)CC2)cc(N2CCCCS2(=O)=O)c1
2. O=C(/C=C/c1ccc(Cl)c(Cl)c1)NCCCCCCN1CCCN(C(=O)Nc2ccc(F)c(Cl)c2)CC1
3. O=C(c1ccc(O)c(-c2cc(Cl)cc(Cl)c2)c1)N(CCO)CCO
4. O=C(/C=C/c1ccc(Cl)c(Cl)c1)NCCCCCN1CCC(C(=O)Nc2ccc(Cl)cc2)CC1
5. CS(=O)(=O)CCNCc1cccc(-c2ccc3c(Nc4ccc(Oc5ccccc5)cc4)ccnc3c2)c1
6. Cc1cccc(CN2CCCN(Cc3ccc(C(=O)Nc4ccc(C)c(F)c4)cc3)CC2)c1

1. 3.16
2. 3.61
3. 2.23
4. 1.92
5. 0.35
6. 1.23

Dear colleague, could you please provide inhibition for the molecules listed below?
1. COc1ccccc1C1CCN(CCN2CCC(NC(=O)c3ccc(-c4ccc(C#N)cc4)cc3)CC2)CC1
2. O=S(=O)(Nc1cc2c(cc1O)CCNCC2)c1ccc(-c2ccc(Cl)cc2)cc1
3. Cc1cc(=NN=Cc2ccc(Cl)cc2)c2ccc(F)cc2[nH]1

1. -0.2
2. 3.27
3. 2.07

// each listed molecule needs a value for inhibition
1. O=C(Nc1cccc(-c2ccc(-c3nc4cc(F)ccc4[nH]3)cc2)c1)c1ccoc1
2. O=C(C(=O)c1ccc(Nc2ccnc3cc(-c4ccccn4)ccc23)cc1)c1ccccc1
3. O=S(=O)(Nc1ccc(CCN2CCC(N3CCCCC3)CC2)cc1)c1cccc(C(F)(F)F)c1

1. 1.01
2. -1.32
3. 6.42

###

Please provide measured inhibition for the entries that follow.
target: Hexose transporter 1 (Plasmodium falciparum); test: ST_JUDE_LEISH: Cytotoxicity at 2uM final concentration against transgenic Leishmania Mexicana promastigotes LmPfHT that are glucose transport deficient and complemented with the Plasmodium falciparum hexose transporter. Activity is measured by DNA content using SYBR green in vitro; assay type: functional
Numbers only, in %.

Observe how each entry below is paired with its result.
// inhibition value for COc1ccc(C(=O)Nc2ccc(-c3ccc([N+](=O)[O-])cc3)cc2)cc1CCCN(C)C : 3.93

inhibition reading for COc1ccc(Nc2nccc(N3CCC(NC(=O)Nc4ccc5c(c4)OCO5)C3)n2)cc1 (stereo not drawn) : 1.7

inhibition reading for CN(C)CCCn1cncc1-c1ccc2ncnc(Nc3ccc4c(cnn4Cc4ccccc4)c3)c2c1 : 1.38

Measured inhibition of CC(C)C[C@H](NC(=O)c1ccc(OCCN2CCOCC2)cc1)C(=O)N[C@H](/C=N/N1CC(=O)NC1=O)CCc1ccccc1 : 4.15

Lab note: Cc1nc(NC(=N)N)nc2cc3c(cc12)CCC3 gave inhibition of 0.44

Provide reported inhibition for each item, in the same order as listed.
1. CCCCCCCCc1c(C)nc(C)c(I)c1O
2. O=C(Nc1ccccc1)N(Cc1cccc(-c2ccc(CNC3CCCC3)cc2)c1)C1CCN(Cc2ccccc2)CC1
3. c1cc(CNC2CCN(CC3CCCCC3)CC2)cc(-n2ccnc2)c1
4. CN(c1ccc(F)cc1)S(=O)(=O)c1ccc(Cl)c(C(=O)Nc2cccc(C#N)c2)c1

1: 0.28; 2: 4.72; 3: -0.48; 4: 3.52

Quick one: give me inhibition for each item below, same order please.
1. Clc1cccc(CNc2nc(NCCc3c[nH]cn3)nc(NC3CCCCC3)n2)c1
2. COc1cc2nc(NCCc3ccccc3)nc(NCc3nccs3)c2cc1OC
3. COc1ccc(S(=O)(=O)N2CCCC(C)C2)cc1N1CCN(C(=O)c2ccc([N+](=O)[O-])o2)CC1 (stereo not drawn)
4. Cc1c(S(=O)(=O)Nc2ccc3nccc(N4CCN[C@H](C)C4)c3c2)sc2ccc(Cl)cc12
5. O=C(c1ccccc1)N1COCC(CCN2CCC(N3CCCC3)CC2)(c2ccc(Cl)c(Cl)c2)C1 (stereo not drawn)
6. CC(C)(C)CCN1CCC(NC(=O)c2ccc(-c3cccc(C(F)(F)F)c3)s2)CC1
7. O=C(Nc1ccc(-c2nc3ccccc3[nH]2)cc1)C1CCCN(CC2CC2)C1 (stereo not drawn)

[3.97, 2.47, 0.28, 0.48, -0.49, 5.61, 10.8]

# per-item lookup of inhibition; items listed below
1. O=C(Nc1cccc(C(F)(F)F)c1)NC1CCN(c2ccnc3cc(Cl)ccc23)C1 (stereo not drawn)
2. Cc1nnc(-c2cccc(Nc3ccnc4cc(-c5nccs5)ccc34)c2)o1
3. CCOC(=O)CCCOc1c(OC)cc(Cc2cnc(N)nc2N)cc1OC
4. Nc1nccc2ccc(OC3CCCCC3)cc12
5. O=C(Nc1ccc2c(c1)CN(Cc1ccc(N3CCCC3)o1)CCC2)c1cncs1

1: -2.13; 2: 11.8; 3: -0.68; 4: 1.26; 5: 1.62

State recorded inhibition for all listed compounds.
1. c1cc(CN2CCN(CCN3CCOCC3)CC2)cc(-c2csc(-c3nc4ccccc4[nH]3)c2)c1
2. FC(F)(F)c1cnc(Sc2nnc(-c3ccncc3)o2)c(Cl)c1

1. 5.16
2. -5.1

###

biological target: Solute carrier family 2, facilitated glucose transporter member 1 (Homo sapiens); assay: ST_JUDE_LEISH: Cytotoxicity at 2uM final concentration against transgenic Leishmania Mexicana promastigotes LmGLUT1 that are glucose transport deficient and complemented with the human glucose transporter GLUT1. Activity is measured by DNA content using SYBR green in vitro; assay type: functional
Would you mind telling me the reported inhibition of each entry?
Quick note: unit goes after the number.

Some compounds with recorded inhibition:
For this compound ( N#CCCN1CCN(Cc2cccc(-c3ccc(-c4nc5ccccc5[nH]4)cc3)c2)CC1 ), measured inhibition is 2.32%

Input N=C(N)c1cccc(-c2cc(-c3cccc(C(=N)N)c3)on2)c1 . Output inhibition: 0.92%

response.value for COc1ccc(CNC2CCN(C)CC2)cc1-c1ccc(S(=O)(=O)NCCN2CCCC2)s1 (field: inhibition) = -3.47%

Your task in this section: give inhibition for each listed record.
1. Cc1nc(C)c(-c2ccc(-c3ccc(F)cc3)cc2)c(O)c1Br
2. CCOc1cc(Cc2cnc(N)nc2N)ccc1OC
3. COc1ccc(C(=O)CCC(=O)N(CCSC(C)(C)C)Cc2ccc(-c3ccc(CNCCc4ccc(S(C)(=O)=O)cc4)cn3)cc2)cc1F
4. Cc1cccc2nc(-c3ccc(-c4ccc(CNCCCN5CCCC5=O)cc4)s3)[nH]c12
5. O=C(/C=C/c1ccc(Cl)c(Cl)c1)NCCCCCN1CCCC(CNC(=O)c2sc3ccccc3c2Cl)C1 (configuration not stated)
6. COc1ccc(CN2CCCN(Cc3cccc(NC(=O)c4ccc(Cl)c(Cl)c4)c3)CC2)cc1
7. O=C(Nc1ccc(-c2ccccc2)s1)N[C@H]1CCN(Cc2ccc(OCCCN3CCCCC3)cc2)C1
8. CCn1c(C)c(C)c2cc(C(=O)Nc3ccon3)ccc21

1: 0.18%; 2: 0.52%; 3: 10.4%; 4: 2.02%; 5: -1.59%; 6: 2.61%; 7: 0.93%; 8: 1.66%

Count: 2. Required value per item: inhibition.
1. Cc1ccc(NC(=O)Nc2ccc(S(=O)(=O)c3ccc(NC(=O)Nc4ccc(C)c(Cl)c4)cc3)cc2)cc1Cl
2. Cc1nc(C)c(-c2ccc(Cl)cc2)c(O)c1I

1: 0.06%; 2: 4.26%

Please go through the list and note inhibition for each compound.
1. Cc1cccc2nc(-c3ccc(-c4cccc(CNCc5ccccc5)c4)cc3)[nH]c12
2. COc1ccc(C=NN=c2cc(C)[nH]c3ccc(C)cc23)c2ccccc12

16.8%
0.11%

Hi team, please reply with inhibition for each item in this list.
1. Fc1cccc(Cl)c1-c1nc(NCCC(c2ccccc2)c2ccccc2)no1
2. Cc1ccc(C)c2sc(N3CCN(C(=O)c4ccc([N+](=O)[O-])o4)CC3)nc12
3. Oc1cccc(Nc2ccnc3cc(-c4ccncc4)ccc23)c1
4. COc1c(C2CCN(CCCCNC(=O)c3ccc(-c4ccc(NC(=O)C(F)(F)F)cc4)cc3)CC2)ccc2c1CCCC2
5. COc1ccc(CNCC(C)(C)c2nc(-c3ccc(Cl)c(O)c3)c(-c3ccncc3)[nH]2)cc1

1: -0.45%; 2: 28.7%; 3: 10.6%; 4: 1.22%; 5: 0.93%

# per-item lookup of inhibition; items listed below
1. CSc1cccc(Nc2nc3ccc(S(=O)(=O)NCC(C)C)cc3n2C(C)C(C)C)c1 (configuration not stated)
2. COc1ccc(CC(=O)Nc2ccc(Nc3nc(C)cc(N(C)C)n3)cc2)cc1

1. 2.75%
2. 10.3%
